assay: qHTS assay for small molecule disruptors of the mitochondrial membrane potential - 1 hr assay (AID 651754); further: nearly all actives have a fitted effect of over 35% in size
experimental parameters: series mostly up to 92.2 µM
Records with an inconclusive call do not appear. The source made the active and inactive calls. The call rests on the fitted dose curve.
Classes used: active, inactive

| compound | answer label |
| --- | --- |
| Cc1ccc(O)cc1 | inactive |
| c1ccc2occc2c1 | inactive |
| Brc1ccccc1-c1ccccc1 | inactive |
| OCc1c[nH]c2ccccc12 | inactive |
| CC(C)(C)c1ccc(O)c(O)c1 | active |
| CCCCC(CC)COC(=O)c1ccccc1C(=O)O (stereo not drawn) | inactive |
| Nc1c2ccccc2nc2ccccc12 | active |
| CCCCCCCCCCCCCCCC[n+]1ccccc1 | inactive |

###

System: Tov112D
assay: Primary qHTS to identify gynecologic anti-cancer compounds using libraries of approved drugs and bioactive compounds (AID 1345084); further: nearly all actives have a fitted effect of over 55% in size
experimental parameters: Gynecologic cancer cell panel viability, ATPlite luminescence, 48 h; series mostly up to 57.5 µM
Inconclusive results are not listed. The source made the active and inactive calls. Calls come from the whole dose curve; as a rule, active = well fitted cell-killing curve with a large enough effect; inconclusive = small, poorly fitted or top-dose-only effect, or effect the other way; inactive = flat fitted curve, though single readings scatter.
Possible outcomes: yes (active), no (inactive)

| compound | answer label |
| --- | --- |
| CCn1ccc(NS(=O)(=O)c2ccc(N)cc2)nc1=O | no |
| O=C(O)c1[nH]n(-c2ccc(S(=O)(=O)O)cc2)c(=O)c1N=Nc1ccc(S(=O)(=O)O)cc1 | no |
| CC(NC(CCc1ccccc1)C(=O)O)C(=O)N1C(=O)N(C)CC1C(=O)O (configuration not stated) | no |
| Cc1onc(-c2ccccc2)c1C(=O)Cl | no |
| CCCC(CCC)(C(=O)OCC)C(=O)OCC | no |
| O=C1Cc2cc(Cl)ccc2N1 | no |
| C/C(=N/NC(=O)c1ccncc1)C(=O)O | no |
| Oc1cccc2[nH]ccc12 | no |
| N#CC1(c2ccc(F)cc2)CCC(=O)CC1 | no |
| OCCOCCN1CCN(C(c2ccccc2)c2ccc(Cl)cc2)CC1 (configuration not stated) | no |
| Nc1ccc2cc3ccc(N)cc3nc2c1 | yes |
| CC(CCc1ccc2c(c1)OCO2)NN (configuration not stated) | no |
| Cc1cccc(N(C)C(=S)Oc2ccc3c(c2)C2CCC3C2)c1 (configuration not stated) | no |
| C[C@@H]1C[C@H]2[C@@H]3CCC4=CC(=O)C=C[C@]4(C)[C@@]3(F)[C@@H](O)C[C@]2(C)[C@@]1(O)C(=O)COC(=O)c1ccncc1 | no |
| Brc1ccccc1-c1ccccc1 | no |
| Cc1coc2ccccc2c1=O | no |
| COc1ccc2c(c1)c(CC(=O)OC/C=C(\C)CC/C=C(\C)CCC=C(C)C)c(C)n2C(=O)c1ccc(Cl)cc1 | no |
| Cn1cc(S(C)=O)c(=O)c2ccc(F)cc21 (configuration not stated) | no |
| CCCCCC[C@@H](CCC)C(=O)O | no |
| CC(C(=O)O)c1ccc(/C=C2\CCCCC2=O)cc1 (configuration not stated) | no |
| C[C@H]1C[C@H](O)c2ccsc2S1(=O)=O | no |
| CCCOc1ccc2c(c1)CC[C@@H]1[C@@H]2CC[C@]2(C)C(OC)CC[C@@H]12 (some centres not stated) | no |
| CO/N=C(/C(=O)N[C@@H]1C(=O)N2C(C(=O)O)=C(Cn3nnc(C)n3)CS[C@H]12)c1csc(N)n1 | no |
| Cc1ccc2c(Cl)cc(Cl)c(O)c2n1 | no |
| O=c1[nH]c(=O)n([C@H]2O[C@H](CO)[C@@H](O)[C@@H]2O)cc1/C=C\Br | no |
| C[N+]1(C)CCC(OC(=O)C(O)(c2ccccc2)C2CCCC2)C1 (configuration not stated) | no |
| Nc1c(I)cc(I)c(C(=O)N(CCC(=O)O)c2ccccc2)c1I | no |
| C1N2CN3CN1CN(C2)C3 | no |
| O=C(CS(=O)Cc1ccco1)NC/C=C\COc1cc(CN2CCCCC2)ccn1 (configuration not stated) | no |
| O=C(Nc1ccc(S(=O)(=O)N2CCOCC2)cc1)c1cc(Cl)ccc1NS(=O)(=O)c1ccc(Cl)s1 | no |
| CCOc1ccccc1OCC1CNCCO1 (configuration not stated) | no |
| CCc1cc2cc(OC)c(OC)cc2c(Cc2ccccc2)n1 | no |
| CCCCC(CC)CNC(=O)CC(C)OC(=O)CCC(=O)O (configuration not stated) | no |
| CC(C)(C)C(O)/C=C/c1ccc2c(c1)OCO2 (configuration not stated) | no |
| O=C(CCCCC(=O)Nc1c(I)cc(I)c(C(=O)O)c1I)Nc1c(I)cc(I)c(C(=O)O)c1I | no |
| CCCN(CCC)C(=O)C(CCC(=O)OCCCN1CCN(CCOC(=O)Cc2c(C)n(C(=O)c3ccc(Cl)cc3)c3ccc(OC)cc23)CC1)NC(=O)c1ccccc1 (configuration not stated) | no |
| CN1[C@@H]2CC[C@H]1CC(NC(=O)n1c(=O)[nH]c3ccccc31)C2 (some centres not stated) | no |
| C1=CC2C3C=CC(C3)C2C1 (configuration not stated) | no |
| CC(=O)OCC(=O)Nc1cc(C#N)cc(NC(=O)COC(C)=O)c1Cl | no |
| CN1Cc2cc(C(=O)N3CCC(C4CCNCC4)CC3)ccc2N[C@@H](CC(=O)O)C1=O | no |
| CC(C)(C)c1ccc(C(=O)CCCCl)cc1 | no |
| CCCCN(CCN(CCCC)C(=O)N1CCOCC1)C(=O)N1CCOCC1 | no |
| O=C(O)Cc1ccc(OCCNC[C@H](O)c2ccccc2)cc1 | no |
| CC(CC(C#N)(c1ccccc1)C(C)C)N(C)C (configuration not stated) | no |
| O=C(O)c1ccccc1S | no |
| CC(C)N(CCC(=O)c1ccc2ccccc2c1)Cc1ccccc1 | no |
| O=c1[nH]sc2cc(Cl)ccc12 | no |
